system under test: Mu-type opioid receptor (Homo sapiens, UniProt P35372)
Sequence (P35372 whole entry): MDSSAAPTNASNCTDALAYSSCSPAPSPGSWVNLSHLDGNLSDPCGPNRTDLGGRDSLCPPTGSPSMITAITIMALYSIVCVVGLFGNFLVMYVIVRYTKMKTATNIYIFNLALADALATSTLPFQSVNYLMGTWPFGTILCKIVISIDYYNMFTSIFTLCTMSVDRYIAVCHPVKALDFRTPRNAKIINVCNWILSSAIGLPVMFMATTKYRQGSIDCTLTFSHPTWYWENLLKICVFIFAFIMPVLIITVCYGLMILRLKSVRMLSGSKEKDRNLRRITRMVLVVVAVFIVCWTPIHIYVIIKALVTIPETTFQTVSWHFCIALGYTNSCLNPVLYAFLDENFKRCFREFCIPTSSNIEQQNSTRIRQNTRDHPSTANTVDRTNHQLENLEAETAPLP
experiment description: Functional activity at human mu opioid receptor expressed in CHO cells by [35S]GTP-gamma-S binding assay
Type: cell-based
condition: filed as partial agonist
readout: Activity

{"columns": ["molecule", "result"],
 "data": [
  ["Oc1ccc2c(c1)[C@@]13CCCC[C@H]1[C@@H](C2)N(CC1CCC1)CC3", "Partial agonist"],
  ["O=C(CCCCCCCCC(=O)Oc1ccc2c(c1)[C@@]13CCCCC1[C@@H](C2)N(CC1CC1)CC3)Oc1ccc2c(c1)[C@@]13CCCCC1[C@@H](C2)N(CC1CCC1)CC3 (single isomer, unassigned; (-))", "Partial agonist"],
  ["O=C(CCCCCCCCC(=O)Oc1ccc2c(c1)[C@@]13CCCCC1[C@@H](C2)N(CC1CCC1)CC3)Nc1ccc2c(c1)[C@@]13CCCCC1[C@@H](C2)N(CC1CCC1)CC3 (some centres undefined)", "Partial agonist"],
  ["Oc1ccc2c(c1)[C@@]13CCCC[C@H]1[C@@H](C2)N(CC1CC1)CC3", "Partial agonist"]
]}
